Hi there, I'd appreciate the recorded EC50 for every entry that follows.
# System name: human GPR40 (Homo sapiens, UniProt O14842)
# Sequence (O14842 whole entry): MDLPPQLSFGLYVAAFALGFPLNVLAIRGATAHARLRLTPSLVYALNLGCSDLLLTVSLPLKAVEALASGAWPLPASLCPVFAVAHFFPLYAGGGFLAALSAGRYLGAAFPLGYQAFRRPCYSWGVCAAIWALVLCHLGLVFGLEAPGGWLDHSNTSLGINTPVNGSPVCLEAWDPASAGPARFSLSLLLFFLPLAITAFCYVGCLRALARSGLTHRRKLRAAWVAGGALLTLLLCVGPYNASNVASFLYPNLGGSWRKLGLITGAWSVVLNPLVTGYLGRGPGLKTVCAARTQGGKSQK
# Protocol description: Inositol phosphate accumulation assay in FFAR1 (GPR40) CHOK1 clone
# Condition summary: GPR40 agonist activity; intracellular inositol phosphate release in CHOK1 cells stably expressing recombinant human GPR40; 1 h incubation at 37° C.

// query # return recorded EC50 for entry "O=C(O)CC1(c2ccc(OCc3cccc(-c4ccc(OCC5(CO)COC5)cc4Cl)c3)cc2)COC1"
// result < 100 nM

// query # return recorded EC50 for entry "Cc1cc(OCCCS(C)(=O)=O)cc(C)c1-c1cccc(COc2ccc(C3(CC(=O)O)COC3)cc2F)c1"
// result > 500 nM

// query # return recorded EC50 for entry "Cc1cc(OCC2(C)COC2)cc(C)c1-c1cccc(COc2ccc(C3(CC(=O)O)COC3)cc2)c1"
// result > 500 nM

// query # return recorded EC50 for entry "CC(C)Sc1ccc(-c2cccc(COc3ccc(C4(CC(=O)O)COC4)cc3)c2)cc1"
// result 100 to 500 nM

// query # return recorded EC50 for entry "COc1cc(-c2cccc(COc3ccc(C4(CC(=O)O)COC4)cc3)c2)ccc1OCCCS(C)(=O)=O"
// result > 500 nM

// query # return recorded EC50 for entry "CC(=O)N1CC(CC(=O)O)(c2ccc(OCc3cccc(-c4c(C)cc(OCCCS(C)(=O)=O)cc4C)c3)cc2)C1"
// result > 500 nM

The origin of these recorded values is patent US20150072969A1.
